Just for reference, paper PMC4513223 is where these values come from.

# Assay type: in vivo, human
# conditionNotes: male, human, plasma, oral, 50 mg
resultType: Tmax
Phrase the answer as number then unit, nothing more needed.

### Prompt Return reported Tmax; argument: O=C(Nc1nc2cccc(-c3ccc(CN4CCS(=O)(=O)CC4)cc3)n2n1)C1CC1 [Filgotinib]
### Response 1.5 h

----------
# assayNotes: Non-compartmental plasma pharmacokinetics after a single oral filgotinib dose
# Assay type: in vivo
# conditionNotes: male, human, 50 mg
resultType: AUC(0-inf) (ng·h/mL)
Give the number; ng·h/mL is assumed, so skip it.

### Prompt Return reported AUC(0-inf); argument: `O=C(Nc1nc2cccc(-c3ccc(CN4CCS(=O)(=O)CC4)cc3)n2n1)C1CC1`
### Response 771

----------
# Assay type: in vivo, human
# conditionNotes: male, human, plasma, oral, 100 mg
resultType: concentration at 12 h (ng/mL)
Give the number; ng/mL is assumed, so skip it.

### Prompt Return reported concentration at 12 h; argument: `O=C(Nc1nc2cccc(-c3ccc(CN4CCS(=O)(=O)CC4)cc3)n2n1)C1CC1`
### Response 27.8

----------
# assayNotes: Non-compartmental plasma pharmacokinetics after a single oral filgotinib dose
# Format: in vivo
# conditionNotes: male, human, 25 mg
resultType: Cmax (ng/mL)
Give the number; ng/mL is assumed, so skip it.

### Prompt Return reported Cmax; argument: `O=C(Nc1nc2cccc(-c3ccc(CN4CCS(=O)(=O)CC4)cc3)n2n1)C1CC1`
### Response 83

----------
# assayNotes: Non-compartmental plasma pharmacokinetics after a single oral filgotinib dose
# Format: in vivo
# conditionNotes: male, human, 25 mg
resultType: Tmax (h)
Give the number; h is assumed, so skip it.

### Prompt Return reported Tmax; argument: `O=C(Nc1nc2cccc(-c3ccc(CN4CCS(=O)(=O)CC4)cc3)n2n1)C1CC1`
### Response 2.5

----------
# Type: in vivo, human
# conditionNotes: male, human, plasma, oral, 200 mg
resultType: AUC(0-t) (ng·h/mL)
Give the number; ng·h/mL is assumed, so skip it.

### Prompt Return reported AUC(0-t); argument: O=C(Nc1nc2cccc(-c3ccc(CN4CCS(=O)(=O)CC4)cc3)n2n1)C1CC1 [Filgotinib]
### Response 4450

----------
# assayNotes: Non-compartmental plasma pharmacokinetics after a single oral filgotinib dose
# Type: in vivo
# conditionNotes: male, human, 25 mg
resultType: AUC(0-inf) (ng·h/mL)
Give the number; ng·h/mL is assumed, so skip it.

### Prompt Return reported AUC(0-inf); argument: O=C(Nc1nc2cccc(-c3ccc(CN4CCS(=O)(=O)CC4)cc3)n2n1)C1CC1 [Filgotinib]
### Response 348

----------
# Assay type: in vivo, human
# conditionNotes: male, human, plasma, po, elimination half-life, average, oral administration
resultType: half-life (h)
Give the number; h is assumed, so skip it.

### Prompt Return reported half-life; argument: O=C(Nc1nc2cccc(-c3ccc(CN4CCS(=O)(=O)CC4)cc3)n2n1)C1CC1 [Filgotinib]
### Response 6
